# Tested on: SR
# Protocol Summary: NCI tumour cell line growth inhibition, 48 h
Activity calls are given as the source filed them. Rule as the data show it: active = GI50 up to about 1.1 µM and inactive = higher.
Parameter call: string, one of 1 (yes) = active, 0 (no) = inactive

Sample answers from the record:
# Compound, Classification
measured = [
    ("CC(=O)c1c(C)[n+]([O-])c2cc(Cl)c(Cl)cc2[n+]1[O-]", "0 (no)"),
    ("Cc1nc2ccccc2c(=O)n1NC(=S)Nc1cccc(Cl)c1", "0 (no)"),
    ("Fc1ccccc1/N=c1\\oc2ccc(Br)cc2cc1-c1nc2ccccc2[nH]1", "0 (no)"),
    ("CN(C)CCCN1c2ccccc2Sc2ccc3ccccc3c21", "1 (yes)"),
    ("CC(C)/C(Cl)=N/OC(=O)Nc1ccc(Cl)c(Cl)c1", "0 (no)"),
]

// query Dear all, I need the recorded test outcome for CCOC(=O)C1(C)CCCc2sc(N)c(C#N)c21 (configuration not stated) , thank you.
// result 0 (no)

###

# Test system: UO-31
# Protocol Summary: NCI tumour cell line growth inhibition, 48 h
Calls of active or inactive are those of the source. Rule as the data show it: active = GI50 up to about 1.1 µM and inactive = higher.
Property Measured: GI50

# Compound, GI50
rows = [
    ("NCCCCNCCCN1CC1", "1.77 µM (inactive)"),
]

Continue with the compound presented below.
// query Which value of GI50 has been reported for `Nc1nc(SCc2ccccc2)c2ncn(Cc3ccccc3)c2n1` in the records?
// result > 100 µM (inactive)

###

# Tested on: SNB-75
# Protocol Summary: NCI tumour cell line growth inhibition, 48 h
The source made the active and inactive calls. No stated cut-off is given here; in the data, active = GI50 up to about 1.1 µM and inactive = higher.
The following compounds are shown together with reported GI50 values.

# Compound, Target Or System, Reported Value
measured = [
    ("CC(c1ccccc1)N1CC(C)(c2ccccc2)N(O)C(c2ccccc2)C1C (stereo not given)", "SNB-75", "6.03 µM (inactive)"),
    ("COC(=O)c1cc2cc3c(c(O)c2c(=O)o1)O[C@@]1(Oc2c(O)c4c(c(O)c2[C@H]1OC1CC(OC)C(O)C(C)O1)C(=O)C=C(OC)C4=O)[C@H](O)C3 (stereo not given in full)", "SNB-75", "0.652 µM (active)"),
    ("NC(CCOCCP(=O)(O)CCOCCC(N)C(=O)O)C(=O)O (stereo not given)", "SNB-75", "> 100 µM (inactive)"),
    ("O=C(/C=C/c1ccccc1)Oc1ccc(C(=O)/C=C/c2ccc(Cl)cc2)cc1", "SNB-75", "75.3 µM (inactive)"),
    ("CCCCCn1cnc2c1S(=O)(=O)N(C)C(NC(=O)c1ccccc1)=N2", "SNB-75", "> 100 µM (inactive)"),
    ("Cc1ccc(S(=O)(=O)NNS(C)(=O)=O)cc1", "SNB-75", "> 100 µM (inactive)"),
    ("CCOC(=O)c1cccc(NC(=O)CBr)c1", "SNB-75", "1.74 µM (inactive)"),
    ("O=S(=O)(/C=C/c1ccc(Cl)cc1Cl)Cc1ccccc1CS(=O)(=O)/C=C/c1ccc(Cl)cc1Cl", "SNB-75", "6.18 µM (inactive)"),
    ("CC#CC(=O)Nc1ccccc1CC(c1c[nH]c2ccccc12)c1c[nH]c2ccccc12", "SNB-75", "5.51 µM (inactive)"),
]

Now let's try a different one.
// query Return reported GI50; argument: `CC(C)/C(Cl)=N/OC(=O)Nc1ccc(Cl)c(Cl)c1`
// result 19.7 µM (inactive)

###

# System: OVCAR-8
# Protocol Summary: NCI tumour cell line growth inhibition, 48 h
The source made the active and inactive calls. Rule as the data show it: active = GI50 up to about 1.1 µM and inactive = higher.
Give your call using only these classes: YES (active), NO (inactive)

// query What was the test verdict on CC(C)(C)[Si](C)(C)OCC1OC(n2cnc3c(=O)[nH]c(N)nc32)C(O[Si](C)(C)C(C)(C)C)C1O[Si](C)(C)C(C)(C)C (centres undefined) ?
// result NO

// query Per the assay record, what outcome was assigned to `Cc1cnc(-n2c(C)nc3cc(Cl)ccc3c2=O)s1` ?
// result NO

// query Please state the recorded outcome for this compound: `COc1ccc(N2C(=O)c3c(c4[nH]c5ccccc5c4c4ccc(C(C)(C)C)cc34)C2=O)cc1`
// result NO

// query Give the logged outcome of this assay for the following compound: CN(C)[C@H]1CC[C@H]2[C@@H]3CCC4C[C@@H](NC(=O)NC(Cc5ccccc5)c5nccs5)CC[C@]4(C)[C@H]3CC[C@]12C (some centres undefined)
// result YES

###

# Test system: Malme-3M
# Protocol Summary: NCI tumour cell line growth inhibition, 48 h
The source made the active and inactive calls. Cut-off read from the data, not from the text of the source: active = GI50 up to about 1.1 µM and inactive = higher.
Returns: one label drawn from active, inactive

Illustrative cases are given below, each with its answer.
# Molecule, Classification
rows = [
    ("COc1ccc2cc(-c3nc(N)nc(N4N=C(C)CC4(C)C)n3)c(=N)oc2c1", "inactive"),
    ("CC(=O)NC1C(CO)O[C@@H]2OC(C)(C)O[C@H]12 (some centres undefined)", "inactive"),
]

// query Dear colleague, could you share the recorded outcome for `O=C(/C=C(\S/C=C(/c1ccccc1)N1CCn2c(C(=O)c3ccccc3)c(C(=O)c3ccccc3)c(C(=O)c3ccccc3)c21)C(=O)c1ccccc1)c1ccccc1` when you have a moment?
// result inactive

// query Tell me the recorded outcome of this test for `C[C@@H](NS(=O)(=O)c1ccc(NC(=O)c2ccccc2)cc1)C(=O)O` .
// result inactive

// query Recorded call for `Cc1cccc(C)c1NC(=O)C(=O)Cc1nc2ccccc2s1` ?
// result inactive

// query Call for entry `O=C(NC(=O)c1c(F)cccc1F)Nc1cccc(Oc2ncc(Cl)cn2)c1` :
// result inactive

// query Each molecule tested received a call. Report the one for COC(=O)C(=O)C(C(=O)Nc1cccc(C)c1C)C1Sc2ccccc2NC1=O (centres undefined) .
// result inactive

// query Hi, do you know how Clc1cc2nc(C3CCCO3)[nH]c2cc1Cl (centres undefined) came out in this test?
// result inactive

// query Hello, I am checking results. What call was entered for `Cc1c(C(=O)CC(=O)C(=O)Nc2cc(Cl)ccc2Cl)[n+]([O-])c2ccccc2[n+]1[O-]` ?
// result inactive

// query Just curious, what result did O=C(CC(C(=O)c1ccco1)c1cccs1)c1cccs1 (centres undefined) get here?
// result inactive

// query Could you check what this test reported for `C[C@H](C(=O)O)C(=O)NC(=O)N(Cc1ccccc1)N=O` ?
// result inactive

// query Assay result, entry `O=C(O)c1ccccc1SCc1cccc2c(=O)c3ccc(Cl)cc3oc12` — outcome?
// result inactive

// query Returns: the outcome recorded for COc1ccc(CC2NCCc3cc(OC)c(OC)cc32)cc1Br (centres undefined) in this assay.
// result inactive

// query Which outcome was entered for the molecule CCOC(=O)N1CCC2C(=C(C)C(C)C3=C2C(=O)c2ccccc2C3=O)C1 (centres undefined) in this test?
// result inactive

// query What did the test return for `O=C(COc1ccccc1)NS(=O)(=O)c1ccccc1` ?
// result inactive

// query What did the test return for `Cn1ccnc1CCc1ccc(F)cc1F` ?
// result inactive

// query How was `CN(C)c1ccc(-c2[nH]c(=O)c3ccccc3[n+]2C)cc1` classified in this test?
// result inactive

###

# System: HL-60
# Protocol Summary: NCI tumour cell line growth inhibition, 48 h
Active and inactive are the calls of the source. Rule as the data show it: active = GI50 up to about 1.1 µM and inactive = higher.
Property Measured: GI50

// query # get_value(readout='GI50', item= `CCc1nc(N)nc(N)c1-c1ccc(N2CCNCC2)cc1` )
// result 34.4 µM (inactive)

// query Look up GI50 for this molecule: `Cc1cn([C@@H]2O[C@H](CO[Si](C)(C)C(C)(C)C)[C@]3(O[C@H]3C(=O)NO)[C@H]2O[Si](C)(C)C(C)(C)C)c(=O)[nH]c1=O`
// result 1.61 µM (inactive)

###

Reported values of GI50 for individual entries
# Test system: OVCAR-3
# Protocol Summary: NCI tumour cell line growth inhibition, 48 h
Active and inactive are the calls of the source. No stated cut-off is given here; in the data, active = GI50 up to about 1.1 µM and inactive = higher.

# Compound, Target Or System, GI50
rows = [
    ("O=S(=O)(O)C1=C2Sc3ccccc3N=C2c2ccccc2C1", "OVCAR-3", "17.5 µM (inactive)"),
    ("CC(C)/C(Cl)=N/OC(=O)Nc1ccc(Cl)c(Cl)c1", "OVCAR-3", "2.58 µM (inactive)"),
]

// query Quick check: GI50 of [N-]=[N+]=NC(c1cn(C2CC(O)C(CO)O2)c(=O)[nH]c1=O)C(I)I (configuration not stated) ?
// result > 100 µM (inactive)

// query # input compound: `Clc1ccc(CCn2cncn2)c(Cl)c1` ; wanted: its GI50
// result > 100 µM (inactive)

// query Which GI50 value belongs to `NCCCCNC1(c2cc3ccccc3s2)CCCCC1` ?
// result 2.78 µM (inactive)

// query Need GI50, item `COc1ccccc1-n1cnc2c1=NC(C)(C)NC=2C(N)=O`
// result > 100 µM (inactive)

// query Form field: reported GI50 of `Clc1ccc(CCN(CCc2ccc(Cl)c(Cl)c2)CCN2CCCC2)cc1Cl`
// result 1.73 µM (inactive)

// query May I ask what GI50 has been recorded for COc1cc2c(cc1OC)C1=Cc3cc(OC)c(OC)cc3C(C)N1C=C2 (configuration not stated) ?
// result 32.1 µM (inactive)

// query Tell me the measured GI50 of [N-]=[N+]=NC1C2CC3CC(C2)CC1C3 (configuration not stated) , please.
// result > 100 µM (inactive)

// query Entry `COc1cc(/C=C(\C)[N+](=O)[O-])cc(OC)c1` : reported GI50 = ?
// result 17.8 µM (inactive)

// query May I ask what GI50 has been recorded for N#CC(C#N)C1CN2CCC1CC2 (configuration not stated) ?
// result > 100 µM (inactive)

// query Requested read-out: GI50. Entry: CC1(C)/C(=N\NC(N)=O)C2CCC1C2 (configuration not stated)
// result > 100 µM (inactive)
